run.description: plasmodial surface anion channel blockers, osmotic lysis – cell-based, P. falciparum Indochina, OD700, 1 h, primary screen (AID 1154)
setup.conditions: P. falciparum Indochina infected RBC osmotic lysis, called active from +8 up or from −8 down
The source made the active and inactive calls.
Outcome codes: active, inactive

INSERT INTO assay_data (compound, qualitative_label) VALUES
  ('CC(C)C(CO)N1C(=O)[C@@H]2C3C(=O)OCCC/C=C\[C@H]3OC23C=CCN(Cc2ccccc2)C(=O)[C@@H]13 (stereo partly drawn)', 'inactive'),
  ('O=C(NCc1ccc(F)cc1)[C@H]1C[C@H]2C(=O)N3CCC[C@H]3C(=O)N2[C@H]1c1ccc(O)cc1', 'inactive'),
  ('C=C(CCCC)/C(=C/C[C@H](OC(=O)c1ccncc1)c1cccc(OCCO)c1)c1cnc2ccccc2c1', 'active'),
  ('CC(C)NC(=O)[C@@]1(c2ccc([N+](=O)[O-])cc2)CC(=O)N(CC23CC4CC(CC(C4)C2)C3)[C@@H]1c1ccc(CO)cc1', 'inactive'),
  ('NC(=O)N1C(=O)C2C(C1=O)C1C=C(CCCO)C2C(c2ccc(CN3CCCC3)cc2)N1Cc1sc2ccccc2c1Cl (stereo not drawn)', 'inactive'),
  ('C=C(COC)/C(=C/C[C@@H](OC(C)=O)c1ccccc1OCCO)c1cnc2ccccc2c1', 'active'),
  ('O=C1C2C=CC(C(O)c3c(F)cccc3Cl)N(Nc3ccc([N+](=O)[O-])cc3)C2C(=O)N1c1ccccc1 (stereo not drawn)', 'active'),
  ('N#Cc1ccc(C(O)C2C=CC3C(=O)NC(=O)C3N2Nc2ccc(Cl)cc2Cl)cc1 (stereo not drawn)', 'active');

----------
target.desc: Streptavidin (Streptomyces avidinii) (UniProt P22629)
Sequence (P22629 whole entry, looked up): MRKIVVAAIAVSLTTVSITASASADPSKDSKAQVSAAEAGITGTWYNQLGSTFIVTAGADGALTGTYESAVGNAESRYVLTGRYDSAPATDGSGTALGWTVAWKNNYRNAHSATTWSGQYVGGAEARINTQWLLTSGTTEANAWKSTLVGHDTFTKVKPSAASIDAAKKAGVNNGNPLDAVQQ
run.description: compounds binding control protein streptavidin – biophysical, small-molecule microarray, 635/667 nm fluorescence, artefact control for SMM compound annotation, primary screen (AID 1147);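 note: signal reflects streptavidin binding to arrayed compounds as a control protein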
setup.conditions: higher = more signal
Listing of entries alongside the reported composite z-score.
endpoint: composite z-score

INSERT INTO results (molecule, assay_value) VALUES
  ('CC(C)N1C(=O)C[C@@](C(=O)NCCN2CCOCC2)(c2ccc([N+](=O)[O-])cc2)[C@H]1c1ccc(CO)cc1', -0.919),
  ('CC(C)=CCCC(C)=CC(O)C1C=CC2C(=O)NC(=O)C2N1Nc1ccc(Cl)cc1Cl (configuration not stated)', 1.26),
  ('CN(C)CCCNC(=O)[C@@]1(C)c2ccccc2C(=O)N(Cc2ccc(OC(F)(F)F)cc2)[C@H]1c1ccc(CO)cc1', -1.04),
  ('O=C1NC(=O)C2C1C=CC(C(O)c1ccc(B(O)O)cc1)N2Nc1ccc(Cl)cc1Cl (configuration not stated)', 1.09),
  ('CCOC(=O)C[C@H]1[C@H](OC(=O)Cc2ccc3c(c2)OCO3)[C@@H](NC(=O)c2ccc3ccccc3n2)c2cc(OCCCO)ccc2N1C(=O)Cc1ccc(OC)cc1', 0.417),
  ('CN(C)CCCC[C@@H]1NC(=O)[C@H]2C[C@@H](C(=O)O)[C@@H](c3ccc(O)cc3)N2C1=O', 3.44),
  ('COC(=O)C(CC#Cc1ccc2c(c1)[C@]1(C(=O)N2)[C@H](c2ccc(OCCO)cc2)N2[C@H](c3ccccc3)[C@H](c3ccccc3)OC(=O)[C@H]2[C@@H]1C(=O)N1CCCCCCC1)C(=O)OC', 2.97);

----------
run.description: growth effects on S. cerevisiae YJM789 – YJM789 clinical isolate, OD600, 24 h, basal, primary screen (AID 1089);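 note: growth of clinical yeast isolate S. cerevisiae YJM 789 seeded 1000 cells per well; test concentration not given here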
setup.conditions: higher = more signal, called active from +8 up or from −8 down
Listing of entries alongside the reported z-score.
endpoint: z-score

INSERT INTO results (molecule, assay_value) VALUES
  ('CN1C(=O)C2C=CC(C(O)c3ccc(-c4ccccc4)s3)N(NC(=O)OC(C)(C)C)C2C1=O (centres undefined)', -0.673),
  ('CCOc1cc(C(O)C2C=CC3C(=O)N(c4ccccc4)C(=O)C3N2Nc2ccccc2F)ccc1O (centres undefined)', 1.54),
  ('CCOC(=O)C1=C[C@@H](C(C)(C)C)N(S(=O)(=O)c2ccc(C)cc2)[C@H]1c1ccc(C#N)cc1', 0.3),
  ('O=C1O[C@H](Cc2ccccc2)[C@@H]2[C@H]3C=CCCC=C3CN2[C@H]1Cc1ccc(O)cc1', -0.055),
  ('CC(C)=CCCC=C(C)C(O)C1C=CC2C(=O)N(c3ccccc3)C(=O)C2N1Nc1ccc(C#N)cc1 (centres undefined)', -1.67),
  ('COC(=O)[C@@]1(Cc2ccccc2)[C@H]2c3cc(C(=O)N(C)C)n(Cc4ccc(S(C)(=O)=O)cc4)c3C[C@H]2CN1C(=O)c1ccccc1', 0.407),
  ('CCCC[C@H]1OB(O)C[C@H]2C1=C(COc1ccccc1)C[C@H]1C(=O)C=CC(=O)[C@H]12', 0.426),
  ('COC(=O)C(CC#Cc1ccc2c(c1)[C@]1(C(=O)N2)[C@H](C(=O)N2CCc3cc(OC)c(OC)cc3C2)[C@H]2C(=O)O[C@H](c3ccccc3)[C@H](c3ccccc3)N2[C@@H]1c1ccccc1OCCO)C(=O)OC', 2.06),
  ('CC[C@@H]1C=C(C(=O)O)[C@H](c2ccc(OC)cc2)N1S(=O)(=O)c1ccc(C)cc1', -0.639),
  ('COC(=O)[C@@]1(Cc2ccc(OC)cc2)[C@H]2c3cc(C(=O)N4CCCC4)n(Cc4ccc(C(F)(F)F)nc4)c3C[C@H]2CN1C(=O)c1ccccc1', -0.361),
  ('C=CCC(OC(C)=O)[C@@H]1[C@@H](N(Cc2cccc3ccccc23)C(=O)Cc2ccc(OC)cc2)c2cc(OCCCO)ccc2N1C(=O)c1ccc2ccccc2c1 (some centres undefined)', -1.12),
  ('COc1ccc([Si](C)(C)[C@H]2[C@H](CCO)O[C@@]3(C(=O)N(Cc4cccc(N5C(=O)c6ccccc6Oc6ccccc65)c4)c4ccccc43)[C@@H]2C)cc1', 2.14),
  ('COC(=O)[C@]1(CCC(=O)OC(C)(C)C)N=C(c2ccc(OCCCO)cc2)O[C@@H]1c1ccccc1N=[N+]=[N-]', 1.15),
  ('O=C1O[C@@H](c2ccccc2)[C@@H](c2ccccc2)N2[C@@H](c3ccccc3OCCO)[C@]3(C(=O)Nc4ccc(C#CCCO)cc43)[C@@H](C(=O)NC[C@H](O)c3ccccc3)[C@H]12', 2.3);

----------
Listing of entries alongside the reported composite z-score.
target.desc: Focal adhesion kinase 1 (Homo sapiens) (UniProt Q05397)
Sequence (Q05397 whole entry, looked up): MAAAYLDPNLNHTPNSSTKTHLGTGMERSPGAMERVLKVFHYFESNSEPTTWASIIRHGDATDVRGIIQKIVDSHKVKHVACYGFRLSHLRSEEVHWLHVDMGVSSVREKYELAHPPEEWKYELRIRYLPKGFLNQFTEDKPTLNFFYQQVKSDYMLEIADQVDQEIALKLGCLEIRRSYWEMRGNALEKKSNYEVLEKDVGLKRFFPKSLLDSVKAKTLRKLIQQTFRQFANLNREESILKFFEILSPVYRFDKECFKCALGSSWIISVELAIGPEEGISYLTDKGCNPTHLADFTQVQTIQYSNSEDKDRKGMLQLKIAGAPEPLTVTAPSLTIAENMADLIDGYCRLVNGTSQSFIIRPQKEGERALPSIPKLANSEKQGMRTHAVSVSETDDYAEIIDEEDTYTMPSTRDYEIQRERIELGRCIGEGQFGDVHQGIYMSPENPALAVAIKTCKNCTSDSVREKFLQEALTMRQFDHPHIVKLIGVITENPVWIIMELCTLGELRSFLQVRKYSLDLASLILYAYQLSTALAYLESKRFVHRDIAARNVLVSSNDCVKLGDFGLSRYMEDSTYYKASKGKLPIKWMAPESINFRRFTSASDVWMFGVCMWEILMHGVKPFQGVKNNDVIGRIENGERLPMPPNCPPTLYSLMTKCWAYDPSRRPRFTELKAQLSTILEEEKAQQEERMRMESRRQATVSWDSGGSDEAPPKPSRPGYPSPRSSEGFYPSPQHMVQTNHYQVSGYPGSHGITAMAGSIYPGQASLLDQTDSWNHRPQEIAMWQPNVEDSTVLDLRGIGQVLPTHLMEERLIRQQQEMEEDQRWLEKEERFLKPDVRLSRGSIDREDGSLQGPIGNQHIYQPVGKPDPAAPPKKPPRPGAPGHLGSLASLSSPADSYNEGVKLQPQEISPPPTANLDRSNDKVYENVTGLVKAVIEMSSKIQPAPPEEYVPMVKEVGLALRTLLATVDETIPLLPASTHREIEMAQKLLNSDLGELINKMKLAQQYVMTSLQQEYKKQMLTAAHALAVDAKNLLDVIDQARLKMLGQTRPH
run.description: PTK2 protein binding on printed compound slides – biochemical, small-molecule microarray, 635/667 nm fluorescence, BSA, DTT, primary screen (AID 1130);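 note: composite of spot emission at 667 nm and signal to noise over triplicate slides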
setup.conditions: 635 nm fluorescence, higher = more signal
endpoint: composite z-score

INSERT INTO measurements (smiles_str, assay_value) VALUES
  ('CC(C)NC(=O)[C@@]1(C)c2ccccc2C(=O)N(Cc2ccccc2)[C@H]1c1ccc(CO)cc1', -0.226),
  ('COCCOC(=O)N1C(=O)[C@@]2(c3cc(C#CCCO)ccc31)[C@H](c1ccc(OCCO)cc1)N1[C@H](c3ccccc3)[C@H](c3ccccc3)OC(=O)[C@H]1[C@@H]2C(=O)N1CCCCCCC1', 0.644),
  ('COc1ccc([Si](C)(C)[C@H]2[C@H](CC(=O)N3Cc4ccccc4C[C@H]3CO)O[C@@]3(C(=O)N(c4ccccc4)c4ccccc43)[C@@H]2C)cc1', 0.0758),
  ('C#CCN1[C@@H](Cc2ccccc2)C(=O)O[C@H](Cc2ccccc2)[C@@H]1/C=C/C1CC1', 0.0423),
  ('O=C1O[C@@H](c2ccccc2)[C@@H](c2ccccc2)N2[C@@H](c3ccc(OCCO)cc3)[C@]3(C(=O)Nc4ccc(C#CCCO)cc43)[C@@H](C(=O)O)[C@H]12', 0.453),
  ('COc1ccc([Si](C)(C)[C@H]2[C@H](CCO)O[C@@]3(C(=O)N(Cc4ccc(NC(=O)[C@H](C)O)cc4)c4ccccc43)[C@@H]2C)cc1', 0.382);

----------
run.description: compound effects on hepatocellular carcinoma cell viability – HepG2, calcein-AM fluorescence, 48 h, basal, profiling panel (AID 1164); note: test concentration not given here
setup.conditions: higher = more signal
endpoint: z-score

INSERT INTO results (compound, endpoint, assay_value) VALUES
  ('C=C(COC)C(=O)CC[C@H](OC(=O)c1cccnc1)c1ccc(OCCO)cc1', 'z-score', 0.143),
  ('Cc1ccc(S[C@]2(C(=O)NCCCN(C)C)CC(=O)N(C3Cc4ccccc4C3)[C@@H]2c2ccc(CO)cc2I)cc1', 'z-score', -0.563),
  ('C=CCC(OC(C)=O)[C@@H]1[C@@H](N(Cc2cccc3ccccc23)C(=O)c2ccc(-c3ccccc3)cc2)c2cc(OCCCO)ccc2N1C(=O)Cc1ccc2ccccc2c1 (stereo not given in full)', 'z-score', 0.581),
  ('COc1ccc(C(O)C2C=CC3C(=O)N(C)C(=O)C3N2N(c2ccccc2)c2ccccc2)cc1 (stereo not given)', 'z-score', 0.132),
  ('C=CC[C@@]12N=C(c3ccc(OCCCO)cc3)O[C@@H]1c1ccccc1N(CCC)C2=O', 'z-score', -1.16);
